# experimentNotes: log P by HPLC on reversed-phase column (C 18), acidic range
# Assay type: physicochemical
Marks after values point to notes of the source that are not given here.
outcomeMeasure: logP

{"columns": ["entrySmiles", "outcomeMeasure", "recordedMeasurement"],
 "data": [
  ["CCOC(=O)c1ccc(C(F)(F)F)cc1Cn1nc(CC)n(OCC)c1=O", "logP", "logP = 3.38^a)"],
  ["CCCOc1nn(Cc2cc(Br)ccc2C(=O)OCC)c(=O)n1C", "logP", "logP = 3.38^a)"]
]}

Origin of measurements: patent US7279444B2
